assay: Inhibitory activity on sorbital accumulation in human retinal cells was determined; type: functional, cell-based
observation_type: IC50
Be sure to follow the number with its unit.

The compound identified as Oc1c(Oc2c(O)c(Br)c(Br)c(Br)c2Br)cc(Br)c(Br)c1Br registered its IC50 at 7 µM

The compound identified as Nc1c(Oc2cc(Br)c(Br)c(Br)c2O)cc(Br)c(Br)c1Br registered its IC50 at 6 µM

The compound identified as COc1ccc2c(C(=S)N(C)CC(=O)O)cccc2c1C(F)(F)F registered its IC50 at 0.02 µM

====

target: Aldo-keto reductase family 1 member B1 (Homo sapiens, UniProt P15121); test: In vitro inhibitory activity against recombinant human aldose reductase (ALR2) was determined
observation_type: pIC50
pIC50 here: minus log base 10 of the concentration, concentration in moles per litre.

Worked examples, 6 compounds total:
- chemical_smiles: "Oc1c(Oc2cc(Br)c(Br)c(Br)c2O)cc(F)c(Br)c1Br"
  subject_of_test: "Aldo-keto reductase family 1 member B1 (Homo sapiens, UniProt P15121)"
  observation_type: "pIC50"
  experimental_result: 5.49
- chemical_smiles: "Nc1c(Oc2cc(Br)c(Br)c(Br)c2O)cc(Br)c(Br)c1Br"
  subject_of_test: "Aldo-keto reductase family 1 member B1 (Homo sapiens, UniProt P15121)"
  observation_type: "pIC50"
  experimental_result: 5.05
- chemical_smiles: "Oc1c(Br)cc(Oc2cc(Br)c(Br)c(Br)c2O)c(O)c1Br"
  subject_of_test: "Aldo-keto reductase family 1 member B1 (Homo sapiens, UniProt P15121)"
  observation_type: "pIC50"
  experimental_result: 5.36
- chemical_smiles: "Oc1c(Oc2cc(Cl)c(Cl)c(Cl)c2O)cc(Cl)c(Cl)c1Cl"
  subject_of_test: "Aldo-keto reductase family 1 member B1 (Homo sapiens, UniProt P15121)"
  observation_type: "pIC50"
  experimental_result: 5.49
- chemical_smiles: "O=C(O)COc1c(Br)cc(Br)cc1Oc1c(Br)c(Br)c(Br)c(Br)c1OCC(=O)O"
  subject_of_test: "Aldo-keto reductase family 1 member B1 (Homo sapiens, UniProt P15121)"
  observation_type: "pIC50"
  experimental_result: 4.60
- chemical_smiles: "Oc1c(Oc2cc(Br)c(Br)c(Br)c2O)cc(Br)c(Br)c1Br"
  subject_of_test: "Aldo-keto reductase family 1 member B1 (Homo sapiens, UniProt P15121)"
  observation_type: "pIC50"
  experimental_result: 5.24

The compound identified as Oc1c(Oc2c(O)c(Br)c(Br)c(Br)c2Br)cc(Br)c(Br)c1Br registered its pIC50 at 5.26
